- Tested on: MS2 coat protein
- assay.info: apparent KD of MS2 coat protein; designed switch direction (-1 OFF switch, 1 ON switch): -1; higher = weaker reporter binding
- conditions.used: input ligand: FMN 200 uM
Use 100 nM as the dividing line for apparent KD of MS2 coat protein, with the line itself on the 1 (yes) side and lower values as 0 (no).

GAUUAACAUGAGGAUCACCCAUGUGAGGAUAUGGAAUGGCUCAUUGUUUGAUUCCCGUCUAGAAGGCACAUCUU [1986#7] (Eterna round: R97, puzzle: Exclusion 1)
1 (yes)
ACACAGCAAGGAUAUACAUGAGGAUCACCCAUGUGGUGGCCGUUACGGUAGGACUAGUGUAGAAGGUGCAUUGG [EX3 #32] (Eterna round: R97, puzzle: Exclusion 3)
1 (yes)
GCUGGUCGAGGAUAUACAAUCGUGCUUCGGCACGUAAGAUCACAUGAGGAUCACCCAUGUAGAAGGUGACCAGC [E2/1-B3] (Eterna round: R97, puzzle: Exclusion 2)
1 (yes)
GGAGGACGAGCAGGAUAUUUUUACAUGAGGAUCACCCAUGUGUACUCAGGGUAAUCCUCCGCCGAAAAGAAGGGUUCGGAAGAA [JL ViennaUCT Socedi mod 4] (Eterna round: R96, puzzle: Exclusion NG 2)
1 (yes)
GGUUGGCGAGGAUAUACAUGAGGAUCACCCAUGUGAGAGAAAAAAGUGAGUAAGAAAAGUAGAAGGCGCUGACG [salish99-ex3-33] (Eterna round: R96, puzzle: Exclusion 3)
1 (yes)
GGAAUGUAAGGAUAUCCGAAAAGCGAGCGAAAGCGAGCAAAGGAGAAGGUACAUGAGGAUCACCCAUGUAAGGG [AK-MS2ROC-r4-exclusion4-12] (Eterna round: R97, puzzle: Exclusion 4)
0 (no)
CAGACGGCCGUAGGAUAUGCAGCAAAGACGUGAGCAGAAGGACGAUACAUGAGGAUCACCCAUGUACGUGGGUAGUGCGCAUGC [Veustean] (Eterna round: R96, puzzle: Exclusion NG 1)
0 (no)
UACAUGAGGAUCACCCAUGUUUUGUCGUGUAUGGUAUUUAUCUAGGAUAUCAAUUUAUUUAUUUAUGAGAAGGAGAAUAUUAAU [JMF's solution 5] (Eterna round: R96, puzzle: Exclusion NG 3)
0 (no)
GGUACUCAAAGAGUACCAAUACGAACAUGAGGAUCACCCAUGUAGGAUAUGCUACUCAAAGAGUAGCAGAAGGACGUGUACCCU [Far Half Aptamer v2] (Eterna round: R96, puzzle: Exclusion NG 3)
0 (no)
UUGACGUCGUCAGGAUAUAGUUUUAAUGUCAUGCUUUUGUUUUUACAUGAGGAUCACCCAUGUCGCUAGAAGGGACUAAAGAUU [JR_ExcNG2_Sub012] (Eterna round: R96, puzzle: Exclusion NG 2)
0 (no)
AGGGAACAUGAGGAUCACCCAUGUGAGGAUAUACAAAAGAAAAGAAAAGAAAGAAGAAGUAGAAGGUACAAGAA [Neferka] (Eterna round: R96, puzzle: Exclusion 1)
0 (no)
CUUCGUGUCAAGGAUAUACAGCAACUAUCCGGAGUAGAAGGUGGCACUUGAGGAUCACCCAAGUGCGUGGGUGU [Uszaqubi] (Eterna round: R97, puzzle: Exclusion 6)
0 (no)
AUUGUGUUAGGAUAUGCUUAUGGUGGGUAGUCCAGUAUGAAGUAGAAGGGACAUGAGGAUCACCCAUGUGCUGA [EX4 #36] (Eterna round: R97, puzzle: Exclusion 4)
1 (yes)
AAAUAUCAUGUAGGAUAUGGAAGGCGAACCUAUCCAGAAGGACAUGAGGAUCACCCAUGUGCUGCGUUGUCCGUAGACAGCGCU [Ex NG1 #2] (Eterna round: R96, puzzle: Exclusion NG 1)
0 (no)
AUUUAAUUUAAUAAGAUCACAUGAGGAUCACCCAUGUUAUAAUAGGAUAUCAGCUCGUUUAGAGCUGAGAAGGAUUAUAACAUG [ExNG3/9-A2] (Eterna round: R96, puzzle: Exclusion NG 3)
0 (no)
AUAAUGUAAGGAUAUCAGUCGACUAGCGAUAGCUAGUCGACUGAGAAGGUACAUGAGGAUCACCCAUGUGAAUA [E4/16-A4] (Eterna round: R97, puzzle: Exclusion 4)
1 (yes)
AGCUGACGAGGAUAUACAUGAGGAUCACCCAUGUUGGUUCAGCGACGAUAGUCGCAAUGUAGAAGGCGUCAGCU [E3/9-A1] (Eterna round: R97, puzzle: Exclusion 3)
0 (no)
UAUUUACAUGAGGAUCACCCAUGUCAGGAUAUGCGUCUAUCGUCGAAAGACGAUAGCCGCAGAAGGGACAAUAU [LRO-Excl01-21 mod derived from EliFisker 4.24] (Eterna round: R97, puzzle: Exclusion 1)
0 (no)
ACCGUGUGAGGAUAUCCGUAGCUGAGGCACCUCGCAAACAUGGAGAAGGCACAUGAGGAUCACCCAUGUGAACC [Eternabot (Original) Solution 27] (Eterna round: R97, puzzle: Exclusion 4)
0 (no)
